- PROCEDURE TEXT: clinical
- CONDITION DESCRIPTION: human, plasma, po
- Description: AUC(0 to 12 hrs) in solid tumor patient at 2 mg, po administered as single dose followed by co-treatment with 27 mg/m2, iv carfilzomib over 2 to 10 mins on days 1, 2, 8, 9, 15 and 16 of single 28-day cycle measured on day 16

COMPOUND STRUCTURE	AUC(0-t) (ng·h/mL)
Cc1ncc2n1-c1ccc(Cl)cc1C(c1ccccc1F)=NC2	48.4

----------
- TGT: CYP3A (Homo sapiens, UniProt P08684+P20815+P24462+Q9HB55)
- PROCEDURE TEXT: Time-dependent inhibition of CYP3A in human liver microsomes assessed as midazolam 1'-hydroxylation using midazolam as substrate by LC-MS/MS analysis
- Type: ADME
- CONDITION DESCRIPTION: probe midazolam (1'-hydroxylation)

COMPOUND STRUCTURE	Ki, µM
CC(C)C[C@H](NC(=O)[C@H](CCc1ccccc1)NC(=O)CN1CCOCC1)C(=O)N[C@@H](Cc1ccccc1)C(=O)N[C@@H](CC(C)C)C(=O)[C@@]1(C)CO1	11

The origin of these recorded values is ChEMBL document CHEMBL3526139.
